# assay-text: Human HepG2 cell viability assay in 384 well format
# Format: toxicity, cell-based
# Set-up: dose 125 nL, time 70.5 hour; concentration not given beside the values
# settings: HepG2 cells, read-out: Inhibition
quantity-kind: cytotoxicity at 70.5 h (%)
Write it as a number; the unit % goes unstated.

Worked cases, cytotoxicity at 70.5 h given:
• CCC[C@H]1CN(Cc2cc(C#N)n(C)c2C)C[C@@H]1NS(=O)(=O)CC = -6.14
• Cn1c(Cn2cccn2)nnc1C1CCCN(c2ccncc2)C1 (stereo unspecified) = -8.1
• O=C(O)c1ccc(=O)n(CC(c2ccc(Cl)cc2)N2CCCCCC2)c1 (stereo unspecified) = -8.13
• COc1cccc2c1OCC(NCCCOc1cccnc1)C2 (stereo unspecified) = -5.15
• COCCCC(=O)NCc1cccc(NC(N)=O)c1 = -3.29

Next compound, cytotoxicity at 70.5 h to be filled in.
Req: Determine its reported cytotoxicity at 70.5 h: Cc1noc(C)c1CCCNc1cnccn1
Resp: -16.9

###

# assay-text: Human HepG2 cell viability assay in 384 well format
# Type: toxicity, cell-based
# Design: dose 125 nL, time 70.5 hour; concentration not given beside the values
# settings: HepG2 cells, read-out: Inhibition
The entries below come with measured cytotoxicity at 70.5 h values attached.
State just the number; it will be interpreted in %.

See these solved cases before continuing.
- COCCc1nnc(NC(=O)Cc2ccccc2Cl)o1: -13.9
- CCOCCS(=O)(=O)c1nnc(NCCOC)s1: 23.1
- CC(C)COCCC(=O)Nc1cc(-n2nnnc2C2CC2)ccc1F: -8.14
- O=c1n(Cc2cccc(C(F)(F)F)c2)nc2ncccn12: 24.8
- O=C(Cc1cccs1)N1C[C@H]2CN(CC3CCCO3)CC[C@H]2C1 (some centres not stated): -6.25
- O=C1CCC[C@]2(CN(S(=O)(=O)N3CCOCC3)C[C@H]2c2cccnc2)N1: -4.54

Req: Determine from records and report cytotoxicity at 70.5 h for Cc1nc(CN2CCc3cnc(C(C)C)nc3C2)oc1C
Resp: -77.4

Req: Determine its reported cytotoxicity at 70.5 h: COc1ccc(OCCc2nnc(NC(C)=O)s2)cc1
Resp: -4.39

Req: Please give measured cytotoxicity at 70.5 h of the following entry: Cc1cc(C)cc(NCCC(=O)NCc2cccnc2N(C)C)c1
Resp: -5.81

Req: Entry CCN(CC)C(=O)[C@@H]1C[C@H](N)CN1c1nnc(-c2ccccc2)s1 needs its cytotoxicity at 70.5 h filled in; supply it.
Resp: 18.2

Req: Specify cytotoxicity at 70.5 h for Cc1nccn1CCCC(=O)N1CCCC(c2noc(C(C)C)n2)C1 (configuration not stated) and stop.
Resp: -2.96

Req: Look up cytotoxicity at 70.5 h of O=C(NCCn1ccnc1)N1CCN(Cc2ccco2)CC1 and report it.
Resp: -3.81

Req: State its cytotoxicity at 70.5 h: COc1ccc(CNC(=O)NCc2ccc(C)cc2)cn1
Resp: -7.46

Req: Fill in cytotoxicity at 70.5 h for record NC(=O)c1cccc(OCC(=O)N2CCCC(n3ccnc3)C2)c1 (configuration not stated)
Resp: -11.1

Req: Give the reported cytotoxicity at 70.5 h for this compound. CCOCC(O)CN1CCN(C(=O)c2ccc(N(C)C)nn2)CC1 (configuration not stated)
Resp: 24.3

Req: Name the recorded cytotoxicity at 70.5 h of the item CCc1cnc(CN(C)C(=O)Nc2cnc3c(c2)c(C)nn3C)s1 in your answer.
Resp: -2.27

Req: Using the record for Cc1ccc2c(ccn2CCC(=O)NC[C@@H]2CCCN3CCCC[C@H]23)c1 , state its measured cytotoxicity at 70.5 h.
Resp: 1.22

###

Each item that follows carries a reported cytotoxicity at 70.5 h.
# assay-text: Human HepG2 cell viability assay in 384 well format
# Type: toxicity, cell-based
# Design: dose 125 nL, time 70.5 hour; concentration not given beside the values
# settings: HepG2 cells, read-out: Inhibition
Record the value in %, omitting the unit from your answer.

* Cc1nc(COCc2cnc3n2CCN(CC2CCC2)C3C)cs1 (stereo not drawn) | -5.9

Req: Consider the compound O=C(CCn1cncn1)N1CCC2(CC1)[C@H](O)C[C@@H]2OCCO and give its recorded cytotoxicity at 70.5 h.
Resp: 0.165

Req: Consider the compound CCCN(CC1CC1)C(=O)CN1CCCC1c1cnn(C)c1 (stereo not drawn) and give its recorded cytotoxicity at 70.5 h.
Resp: -10.4

Req: Please give measured cytotoxicity at 70.5 h of the following entry: CC(C)N(C)[C@@H]1CCN(c2ncccn2)[C@H]1Cc1ccncc1
Resp: 1.38

Req: Fill in reported cytotoxicity at 70.5 h for this entry: COc1ccc(CNC(C)c2ccc3[nH]c(=O)[nH]c3c2)cc1 (stereo not drawn)
Resp: -2.85

Req: Answer with reported cytotoxicity at 70.5 h of Cc1cnc(CNCc2cnc(-c3ccccc3C)s2)cn1
Resp: -1.03

Req: Check the records and state cytotoxicity at 70.5 h for Cc1cc(CN2CCN(Cc3cnc4c(c3)c(C)nn4C)CC2)on1
Resp: -6.72

Req: Output cytotoxicity at 70.5 h of O=C1NCCCc2c1oc1ccc(O)c(CN3CCOCC3)c21
Resp: 30.3

Req: Please indicate cytotoxicity at 70.5 h recorded for COc1ccnc(N2C[C@@H]3CC[C@H](C2)N(CC2CCC2)C3=O)n1
Resp: -0.827

Req: Supply cytotoxicity at 70.5 h value. Item: COc1ccc2nnc(CCC(=O)NCc3cccn3C)n2n1
Resp: -2.62

###

# assay-text: Human HepG2 cell viability assay in 384 well format
# Type: toxicity, cell-based
# Parameters: dose 125 nL, time 70.5 hour; concentration not given beside the values
# settings: HepG2 cells, read-out: Inhibition
Overview of recorded cytotoxicity at 70.5 h for various molecules
Number in %, nothing else.

• CC(C)NC(=O)c1cc(-c2ccc(S(C)(=O)=O)cc2)c2cnn(C)c2n1 = -0.443
• CCn1cc(NC(=O)N2CCN(CCSc3ccccc3)CC2)cn1 = -7.68
• CCOCCC1(CNC(=O)c2ccncc2Cl)CCC1 = -2.65
• CC(C)NC(=O)NC[C@H]1OC[C@@H](NCc2ccccc2O)[C@@H]1O = -2.12
• Cc1nc(C2CCCN2C(=O)CCCOc2cccc(F)c2)no1 (configuration not stated) = -4.99

Req: Read off the recorded cytotoxicity at 70.5 h for Cc1ccsc1C(=O)N1Cc2ncn(C)c2C(COCC2CC2)C1 (configuration not stated)
Resp: 5.9

Req: Consider the molecule CCN(CC)C(CNCc1cc(F)cc(F)c1)c1ccco1 (configuration not stated) and give its recorded cytotoxicity at 70.5 h.
Resp: 20.8

###

In this section, each of the compounds is paired with its reported cytotoxicity at 70.5 h.
# assay-text: Human HepG2 cell viability assay in 384 well format
# Type: toxicity, cell-based
# Set-up: dose 125 nL, time 70.5 hour; concentration not given beside the values
# settings: HepG2 cells, read-out: Inhibition
Respond numerically; units are % and should not be typed.

* O=C1CC(c2ccccc2)C2(CCN(C(=O)c3cnccn3)CC2)N1 (centres undefined) | -8.06

Req: For the compound COc1cccc2c1OCC(CNC(=O)Cn1ccnc1C)C2 (centres undefined) , report cytotoxicity at 70.5 h.
Resp: -0.227

Req: Recall and state the measured cytotoxicity at 70.5 h for CC(C)(C)CCN1CCC(c2nnc(Cn3cccn3)n2C2CC2)CC1 .
Resp: -9.38

Req: Please report the measured cytotoxicity at 70.5 h for NC(=O)[C@@H]1CN2CCN(C(=O)C3CC3)C[C@@H]2[C@H]1c1ccccc1
Resp: -2.24

Req: Tell us which cytotoxicity at 70.5 h value is on record for CCn1cc(C(=O)NCc2csc(Br)c2)cn1
Resp: -11.6

Req: Give the value of cytotoxicity at 70.5 h reported for the following: CC(Cc1cccc(F)c1)NCc1cnc(N2CCN(C)CC2)nc1 (centres undefined)
Resp: 9.92

###

As shown below, each of these molecules has a reported cytotoxicity at 70.5 h value.
# assay-text: Human HepG2 cell viability assay in 384 well format
# Format: toxicity, cell-based
# Design: dose 125 nL, time 70.5 hour; concentration not given beside the values
# settings: HepG2 cells, read-out: Inhibition
Your answer should be a plain number; it is taken to be in %.

Solved entries (count: 4):
• O=C(c1ccc2c(c1)CCC2)N1CCCCC1C1OCCO1 (stereo not drawn) = -7.93
• CCn1ncc(CN2CCCC(C(=O)c3ccc(Cl)cc3)C2)c1C (stereo not drawn) = -6.46
• CC(C)C(=O)N1CCOC2(COCCN(c3ncccn3)C2)C1 (stereo not drawn) = -11.8
• Cc1cc(N2CCOC(CN)C2)nc(-c2ccccc2)n1 (stereo not drawn) = -10.8

Req: Identify the reported cytotoxicity at 70.5 h for the following entry. Cc1ncsc1C(=O)N1CCc2nnc(C3CCCCN3C)n2CC1 (stereo not drawn)
Resp: -2.05

Req: Name the recorded cytotoxicity at 70.5 h of the molecule listed here: CCc1nccc(CN2CCC(CNC(=O)[C@H]3CC[C@H](C)CC3)C2)n1 (stereo partly drawn)
Resp: 27.6

Req: Hello, please tell me recorded cytotoxicity at 70.5 h for this one: Cc1ccc(N2CC[C@@H]3[C@@H]2CCN3C(=O)Cc2ccccc2)nn1
Resp: 5.36

Req: Recall and state the measured cytotoxicity at 70.5 h for CN(C)CCN1C[C@@H]2CN(C(=O)C3CCOC3)C[C@@H]2C1=O (stereo partly drawn) .
Resp: 23.4

Req: Answer with reported cytotoxicity at 70.5 h of c1ccc(Cc2noc(CN3CCc4cncnc4C3)n2)cc1
Resp: -9.62

Req: // fetch cytotoxicity at 70.5 h given entry Cc1nc(CN2CCN(CCCc3ccccc3)CC2)no1
Resp: 1.83

Req: Supply cytotoxicity at 70.5 h value. Item: O=C(NCC(O)COc1ccc(F)cc1)C1(c2ccc(F)cc2)CC1 (stereo not drawn)
Resp: -8.65

Req: Retrieve cytotoxicity at 70.5 h measured for CC(=O)N1CCC(c2cncc(Oc3ccccc3)n2)CC1 and print it.
Resp: -2.89

Req: Respond only with cytotoxicity at 70.5 h recorded for F[C@@H]1CN(C2CCC2)C[C@@H]1OCc1nc2ncccc2[nH]1
Resp: 15.4
